- measured-on: T1, E. coli proline tRNA synthetase (E. coli), P16659
- T1 chain: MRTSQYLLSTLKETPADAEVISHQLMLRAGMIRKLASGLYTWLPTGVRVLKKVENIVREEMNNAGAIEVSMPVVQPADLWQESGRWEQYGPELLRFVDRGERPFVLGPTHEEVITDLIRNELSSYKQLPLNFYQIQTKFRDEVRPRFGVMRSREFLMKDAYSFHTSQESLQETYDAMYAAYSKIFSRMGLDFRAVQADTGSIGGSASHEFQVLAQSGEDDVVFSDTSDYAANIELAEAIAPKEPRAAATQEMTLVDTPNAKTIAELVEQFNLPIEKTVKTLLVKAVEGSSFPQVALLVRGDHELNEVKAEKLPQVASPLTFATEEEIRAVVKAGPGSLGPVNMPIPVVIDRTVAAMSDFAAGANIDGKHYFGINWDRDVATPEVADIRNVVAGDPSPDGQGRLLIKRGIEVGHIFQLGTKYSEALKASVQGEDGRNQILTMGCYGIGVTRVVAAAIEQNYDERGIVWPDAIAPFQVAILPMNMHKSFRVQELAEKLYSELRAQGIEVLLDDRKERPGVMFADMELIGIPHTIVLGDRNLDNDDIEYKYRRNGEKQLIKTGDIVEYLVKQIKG
- procedure-details: tRNA charging (enzyme activity) assay, competitive in respect to proline
pKi: −log10 of the molar value. Where no end group is shown, it is not given here.
quantity-name: pKi

- SRVCAIWPDLDGCSR (not fully specified; cysteine pairing not given here) [non-biotinylated ProRS peptide]: < 3.30

// provenance: patent US6617114B1
